Values compiled from ChEMBL document CHEMBL1124503.

# target.entity: Angiotensin II receptor (Rattus norvegicus) (UniProt P29089+P25095+P35351)
# test.name: In vivo blood pressure increase produced by a 1 ug bolus i.v.
# Format: functional, organism-based
Where a SMILES comes first, the peptide text is derived from it. [ ]: non-standard residue; d: D form. Phe(4-I) = N[C@@H](Cc1ccc(I)cc1)C(=O)O; Sar = CNCC(=O)O
readout.type: Blood pressure (mmHg)
// units = mmHg; emit number, no label

compound | units.text | Blood pressure
CC[C@H](C)[C@H](NC(=O)[C@H](Cc1ccc(O)cc1)NC(=O)[C@@H](NC(=O)[C@H](CCCN=C(N)N)NC(=O)CNC)C(C)C)C(=O)N[C@@H](Cc1c[nH]cn1)C(=O)N1CCC[C@H]1C(=O)N[C@H](Cc1ccc(O)cc1)C(=O)O | mmHg | 15

(Q) Please indicate Blood pressure recorded for CC[C@H](C)[C@H](NC(=O)[C@H](Cc1ccc(I)cc1)NC(=O)[C@@H](NC(=O)[C@H](CCCN=C(N)N)NC(=O)CNC)C(C)C)C(=O)N[C@@H](Cc1c[nH]cn1)C(=O)N1CCC[C@H]1C(=O)N[C@@H](Cc1ccccc1)C(=O)O (H-[Sar]RV[Phe(4-I)]IHPF-OH)
(A) 80

---

# Species: Oryctolagus cuniculus
# test.name: Antagonist activity pA2, was measured in the in vitro rabbit aorta strip assay
# Assay type: functional
# protocol.conditions: read-out: pA2 (converted)
Where a SMILES comes first, the peptide text is derived from it. [ ]: non-standard residue; d: D form. Phe(4-I) = N[C@@H](Cc1ccc(I)cc1)C(=O)O; Sar = CNCC(=O)O
readout.type: Kb (µM)
// units = µM; emit number, no label

molecule | units.text | Kb
CC[C@H](C)[C@H](NC(=O)[C@H](Cc1ccc(I)cc1)NC(=O)[C@@H](NC(=O)[C@H](CCCN=C(N)N)NC(=O)CNC)C(C)C)C(=O)N[C@@H](Cc1c[nH]cn1)C(=O)N1CCC[C@H]1C(=O)N[C@@H](Cc1ccccc1)C(=O)O (H-[Sar]RV[Phe(4-I)]IHPF-OH) | µM | 0.251

(Q) Please indicate Kb recorded for `CC[C@H](C)[C@H](NC(=O)[C@H](Cc1ccc(OC)cc1)NC(=O)[C@@H](NC(=O)[C@H](CCCN=C(N)N)NC(=O)CNC)C(C)C)C(=O)N[C@@H](Cc1c[nH]cn1)C(=O)N1CCC[C@H]1C(=O)N[C@@H](Cc1ccccc1)C(=O)O`
(A) 0.0794

---

# Test system: Angiotensin II receptor (Oryctolagus cuniculus)
# test.name: Angiotensin II-like agonist activity, measured in the in vitro rabbit aorta strip assay
Where a SMILES comes first, the peptide text is derived from it. [ ]: non-standard residue; d: D form. Phe(4-SO3H) = N[C@@H](Cc1ccc(S(=O)(=O)O)cc1)C(=O)O; Sar = CNCC(=O)O
readout.type: Activity (%)
// units = %; emit number, no label

compound | Activity, %
CC[C@H](C)[C@H](NC(=O)[C@H](Cc1ccc(S(=O)(=O)O)cc1)NC(=O)[C@@H](NC(=O)[C@H](CCCN=C(N)N)NC(=O)CNC)C(C)C)C(=O)N[C@@H](Cc1c[nH]cn1)C(=O)N1CCC[C@H]1C(=O)N[C@@H](Cc1ccccc1)C(=O)O (H-[Sar]RV[Phe(4-SO3H)]IHPF-OH) | 0
CC[C@H](C)[C@H](NC(=O)[C@H](Cc1ccc(F)cc1)NC(=O)[C@@H](NC(=O)[C@H](CCCN=C(N)N)NC(=O)CNC)C(C)C)C(=O)N[C@@H](Cc1c[nH]cn1)C(=O)N1CCC[C@H]1C(=O)N[C@@H](Cc1ccccc1)C(=O)O | 0

Now for another entry.
(Q) Please indicate Activity recorded for `CC[C@H](C)[C@H](NC(=O)[C@@H]1CCCN1C(=O)[C@H](Cc1c[nH]cn1)NC(=O)[C@@H](NC(=O)[C@H](Cc1ccc(OC)cc1)NC(=O)[C@@H](NC(=O)[C@H](CCCN=C(N)N)NC(=O)CNC)C(C)C)[C@@H](C)CC)C(=O)O`
(A) 0

---

# target.entity: Angiotensin II receptor (Rattus norvegicus) (UniProt P29089+P25095+P35351)
# test.name: In vivo blood pressure increase produced by a 1 ug bolus i.v.
# Assay type: functional, organism-based
Where a SMILES comes first, the peptide text is derived from it. [ ]: non-standard residue; d: D form. Phe(4-B(OH)2) = N[C@@H](Cc1ccc(B(O)O)cc1)C(=O)O; Phe(4-Cl) = N[C@@H](Cc1ccc(Cl)cc1)C(=O)O; Sar = CNCC(=O)O
readout.type: Blood pressure (mmHg)
// units = mmHg; emit number, no label

Solved cases (3 shown):
compound | Blood pressure [mmHg]
CC[C@H](C)[C@H](NC(=O)[C@@H]1CCCN1C(=O)[C@H](Cc1c[nH]cn1)NC(=O)[C@@H](NC(=O)[C@H](Cc1ccc(B(O)O)cc1)NC(=O)[C@@H](NC(=O)[C@H](CCCN=C(N)N)NC(=O)CNC)C(C)C)[C@@H](C)CC)C(=O)O (H-[Sar]RV[Phe(4-B(OH)2)]IHPI-OH) | 0
CC[C@H](C)[C@H](NC(=O)[C@H](Cc1ccc(O)cc1)NC(=O)[C@@H](NC(=O)[C@H](CCCN=C(N)N)NC(=O)CNC)C(C)C)C(=O)N[C@@H](Cc1c[nH]cn1)C(=O)N1CCC[C@H]1C(=O)N[C@H](Cc1ccccc1)C(=O)O | 10
CC[C@H](C)[C@H](NC(=O)[C@H](Cc1ccccc1)NC(=O)[C@@H](NC(=O)[C@H](CCCN=C(N)N)NC(=O)CNC)C(C)C)C(=O)N[C@@H](Cc1c[nH]cn1)C(=O)N1CCC[C@H]1C(=O)N[C@H](Cc1ccc(O)cc1)C(=O)O | 5

(Q) Please indicate Blood pressure recorded for CC[C@H](C)[C@H](NC(=O)[C@H](Cc1ccc(Cl)cc1)NC(=O)[C@@H](NC(=O)[C@H](CCCN=C(N)N)NC(=O)CNC)C(C)C)C(=O)N[C@@H](Cc1c[nH]cn1)C(=O)N1CCC[C@H]1C(=O)N[C@@H](Cc1ccccc1)C(=O)O (H-[Sar]RV[Phe(4-Cl)]IHPF-OH)
(A) 5.5

(Q) Please indicate Blood pressure recorded for CC[C@H](C)[C@H](NC(=O)C1CCCN1C(=O)[C@H](Cc1c[nH]cn1)NC(=O)[C@@H](NC(=O)[C@H](Cc1ccc(O)cc1)NC(=O)[C@@H](NC(=O)[C@H](CCCN=C(N)N)NC(=O)CNC)C(C)C)[C@@H](C)CC)C(=O)O (single isomer, unassigned)
(A) 10

(Q) Please indicate Blood pressure recorded for `CCOc1ccc(C[C@H](NC(=O)[C@@H](NC(=O)[C@H](CCCN=C(N)N)NC(=O)CNC)C(C)C)C(=O)N[C@H](C(=O)N[C@@H](Cc2c[nH]cn2)C(=O)N2CCC[C@H]2C(=O)N[C@@H](Cc2ccccc2)C(=O)O)[C@@H](C)CC)cc1`
(A) 2.5

(Q) Please indicate Blood pressure recorded for CC[C@H](C)[C@H](NC(=O)[C@@H]1CCCN1C(=O)[C@H](Cc1c[nH]cn1)NC(=O)[C@@H](NC(=O)[C@H](Cc1ccc(Cl)cc1)NC(=O)[C@@H](NC(=O)[C@H](CCCN=C(N)N)NC(=O)CNC)C(C)C)[C@@H](C)CC)C(=O)O (H-[Sar]RV[Phe(4-Cl)]IHPI-OH)
(A) 2

(Q) Please indicate Blood pressure recorded for CC[C@H](C)[C@H](NC(=O)[C@@H]1CCCN1C(=O)[C@H](Cc1c[nH]cn1)NC(=O)[C@@H](NC(=O)[C@H](Cc1ccccc1)NC(=O)[C@@H](NC(=O)[C@H](CCCN=C(N)N)NC(=O)CNC)C(C)C)[C@@H](C)CC)C(=O)O (H-[Sar]RVFIHPI-OH)
(A) 2.7

(Q) Please indicate Blood pressure recorded for `CC[C@H](C)[C@H](NC(=O)[C@@H]1CCCN1C(=O)[C@H](Cc1c[nH]cn1)NC(=O)[C@@H](NC(=O)[C@H](Cc1ccc(OC)cc1)NC(=O)[C@@H](NC(=O)[C@H](CCCN=C(N)N)NC(=O)CNC)C(C)C)[C@@H](C)CC)C(=O)O`
(A) 3

---

Reported Kb values for a set of compounds
# Species on record: Oryctolagus cuniculus
# test.name: Antagonist activity pA2, was measured in the in vitro rabbit aorta strip assay
# Format: functional
# protocol.conditions: read-out: pA2 (converted)
Where a SMILES comes first, the peptide text is derived from it. [ ]: non-standard residue; d: D form. Phe(4-B(OH)2) = N[C@@H](Cc1ccc(B(O)O)cc1)C(=O)O; Sar = CNCC(=O)O
// units = nM; emit number, no label

Solved cases (2 shown):
compound | units.text | Kb
CC[C@H](C)[C@H](NC(=O)[C@@H]1CCCN1C(=O)[C@H](Cc1c[nH]cn1)NC(=O)[C@@H](NC(=O)[C@H](Cc1ccc(B(O)O)cc1)NC(=O)[C@@H](NC(=O)[C@H](CCCN=C(N)N)NC(=O)CNC)C(C)C)[C@@H](C)CC)C(=O)O (H-[Sar]RV[Phe(4-B(OH)2)]IHPI-OH) | nM | 2000
CC[C@H](C)[C@H](NC(=O)[C@H](Cc1ccc(F)cc1)NC(=O)[C@@H](NC(=O)[C@H](CCCN=C(N)N)NC(=O)CNC)C(C)C)C(=O)N[C@@H](Cc1c[nH]cn1)C(=O)N1CCC[C@H]1C(=O)N[C@H](Cc1ccccc1)C(=O)O | nM | 141

Now for another entry.
(Q) Please indicate Kb recorded for `CC[C@H](C)[C@H](NC(=O)[C@@H]1CCCN1C(=O)[C@H](Cc1c[nH]cn1)NC(=O)[C@@H](NC(=O)[C@H](Cc1ccc(OC)cc1)NC(=O)[C@@H](NC(=O)[C@H](CCCN=C(N)N)NC(=O)CNC)C(C)C)[C@@H](C)CC)C(=O)O`
(A) 79.4
